System: ASPC1
RUN_DESCRIPTION: Cytotoxicity against human AsPC1 cells assessed as reduction in cell viability at 75 uM incubated for 72 hrs by MTT assay
Type: functional
ASSAY_CONDITIONS: ASPC1, 72 h
Reported inhibition at 75 µM values for a set of molecules

Please review the following examples before continuing.
The value of inhibition at 75 µM measured for the molecule CC(NC(=O)C(Sc1nc2cc(Cl)ccc2s1)c1ccccc1)c1ccccc1 (configuration not stated) turned out to be ≤ 50%

The value of inhibition at 75 µM measured for the molecule CC(=O)Nc1ccc(NC(=O)C(Sc2nc3cc(Cl)ccc3s2)c2ccccc2)cc1 (configuration not stated) turned out to be ≤ 50%

The value of inhibition at 75 µM measured for the molecule O=C(NCc1ccccc1)C(Sc1nc2cc(Cl)ccc2s1)c1ccccc1 (configuration not stated) turned out to be ≤ 50%

Next molecule, inhibition at 75 µM to be filled in.
The value of inhibition at 75 µM measured for the molecule O=C(NCCCc1ccccc1)C(Sc1nc2cc(Cl)ccc2s1)c1ccccc1 (configuration not stated) turned out to be ≤ 50%

====

Test system: HT-29
RUN_DESCRIPTION: Cytotoxicity against human HT-29 cells assessed as reduction in cell viability at 75 uM incubated for 72 hrs by MTT assay
Format: functional
ASSAY_CONDITIONS: HT-29, 72 h
Reported inhibition at 75 µM values for a set of compounds

Please review the following examples before continuing.
The value of inhibition at 75 µM measured for the compound CC(NC(=O)C(Sc1nc2cc(Cl)ccc2s1)c1ccccc1)c1ccccc1 (configuration not stated) turned out to be ≤ 50%

The value of inhibition at 75 µM measured for the compound O=C(Nc1ccccc1)C(Sc1nc2cc(Cl)ccc2s1)c1ccccc1 (configuration not stated) turned out to be ≤ 68%

The value of inhibition at 75 µM measured for the compound CC(=O)Nc1ccc(NC(=O)C(Sc2nc3cc(Cl)ccc3s2)c2ccccc2)cc1 (configuration not stated) turned out to be ≤ 50%

More entries:
The value of inhibition at 75 µM measured for the compound O=C(NCc1ccccc1)C(Sc1nc2cc(Cl)ccc2s1)c1ccccc1 (configuration not stated) turned out to be ≤ 50%

The value of inhibition at 75 µM measured for the compound O=C(NCCCc1ccccc1)C(Sc1nc2cc(Cl)ccc2s1)c1ccccc1 (configuration not stated) turned out to be ≤ 63%

The value of inhibition at 75 µM measured for the compound CCCCNC(=O)C(Sc1nc2cc(Cl)ccc2s1)c1ccccc1 (configuration not stated) turned out to be ≤ 50%

The value of inhibition at 75 µM measured for the compound O=C(NCCc1ccccc1)C(Sc1nc2cc(Cl)ccc2s1)c1ccccc1 (configuration not stated) turned out to be ≤ 50%

====

TARGET_OR_SYSTEM: Peroxisome proliferator-activated receptor alpha (Homo sapiens) (UniProt Q07869)
Sequence (Q07869 whole entry, the tested form may be a part): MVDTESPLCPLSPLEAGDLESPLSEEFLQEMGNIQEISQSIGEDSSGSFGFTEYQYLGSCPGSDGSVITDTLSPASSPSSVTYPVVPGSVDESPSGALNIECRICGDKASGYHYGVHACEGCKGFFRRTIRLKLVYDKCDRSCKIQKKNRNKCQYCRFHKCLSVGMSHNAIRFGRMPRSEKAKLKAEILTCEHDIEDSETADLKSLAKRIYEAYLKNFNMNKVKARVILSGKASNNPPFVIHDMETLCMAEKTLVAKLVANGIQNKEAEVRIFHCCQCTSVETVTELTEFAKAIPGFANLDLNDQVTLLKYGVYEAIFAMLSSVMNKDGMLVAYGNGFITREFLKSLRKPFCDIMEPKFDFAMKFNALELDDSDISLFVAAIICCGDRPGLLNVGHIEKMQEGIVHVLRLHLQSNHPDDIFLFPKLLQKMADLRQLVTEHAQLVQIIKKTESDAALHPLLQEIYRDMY
RUN_DESCRIPTION: Antagonist activity at GAL4-tagged human PPARalpha LBD expressed in human HepG2 cells assessed as inhibition of Wy14,643-induced receptor transactivation at 25 uM incubated for 20 hrs by luciferase reporter gene assay relative to control
Type: cell-based
Reported %max values for a set of compounds
Just the number in %, nothing appended.

Please review the following examples before continuing.
The compound O=C(Nc1ccccc1)C(Sc1nc2cc(Cl)ccc2s1)c1ccccc1 (configuration not stated) on Peroxisome proliferator-activated receptor alpha (Homo sapiens) (UniProt Q07869): %max was 22

The compound O=C(NCc1ccccc1)C(Sc1nc2cc(Cl)ccc2s1)c1ccccc1 (configuration not stated) on Peroxisome proliferator-activated receptor alpha (Homo sapiens) (UniProt Q07869): %max was 35

The compound O=C(NCCCc1ccccc1)C(Sc1nc2cc(Cl)ccc2s1)c1ccccc1 (configuration not stated) on Peroxisome proliferator-activated receptor alpha (Homo sapiens) (UniProt Q07869): %max was 46

The compound O=C(NCCc1ccccc1)C(Sc1nc2cc(Cl)ccc2s1)c1ccccc1 (configuration not stated) on Peroxisome proliferator-activated receptor alpha (Homo sapiens) (UniProt Q07869): %max was 57

The compound CC(=O)Nc1ccc(NC(=O)C(Sc2nc3cc(Cl)ccc3s2)c2ccccc2)cc1 (configuration not stated) on Peroxisome proliferator-activated receptor alpha (Homo sapiens) (UniProt Q07869): %max was 22

More entries:
The compound CCCCNC(=O)C(Sc1nc2cc(Cl)ccc2s1)c1ccccc1 (configuration not stated) on Peroxisome proliferator-activated receptor alpha (Homo sapiens) (UniProt Q07869): %max was 31

The compound CC(NC(=O)C(Sc1nc2cc(Cl)ccc2s1)c1ccccc1)c1ccccc1 (configuration not stated) on Peroxisome proliferator-activated receptor alpha (Homo sapiens) (UniProt Q07869): %max was 45

====

System: SW480
RUN_DESCRIPTION: Cytotoxicity against human SW480 cells assessed as reduction in cell viability at 75 uM incubated for 72 hrs by MTT assay
Assay type: functional
ASSAY_CONDITIONS: SW480, 72 h
Reported inhibition at 75 µM values for a set of molecules

Please review the following examples before continuing.
The value of inhibition at 75 µM measured for the molecule O=C(NCCc1ccccc1)C(Sc1nc2cc(Cl)ccc2s1)c1ccccc1 (configuration not stated) turned out to be ≤ 50%

The value of inhibition at 75 µM measured for the molecule CCCCNC(=O)C(Sc1nc2cc(Cl)ccc2s1)c1ccccc1 (configuration not stated) turned out to be ≤ 50%

The value of inhibition at 75 µM measured for the molecule O=C(NCCCc1ccccc1)C(Sc1nc2cc(Cl)ccc2s1)c1ccccc1 (configuration not stated) turned out to be ≤ 63%

The value of inhibition at 75 µM measured for the molecule O=C(NCc1ccccc1)C(Sc1nc2cc(Cl)ccc2s1)c1ccccc1 (configuration not stated) turned out to be ≤ 50%

The value of inhibition at 75 µM measured for the molecule CC(=O)Nc1ccc(NC(=O)C(Sc2nc3cc(Cl)ccc3s2)c2ccccc2)cc1 (configuration not stated) turned out to be ≤ 50%

More entries:
The value of inhibition at 75 µM measured for the molecule CC(NC(=O)C(Sc1nc2cc(Cl)ccc2s1)c1ccccc1)c1ccccc1 (configuration not stated) turned out to be 60%

The value of inhibition at 75 µM measured for the molecule O=C(Nc1ccccc1)C(Sc1nc2cc(Cl)ccc2s1)c1ccccc1 (configuration not stated) turned out to be ≤ 68%

====

System: ASPC1
RUN_DESCRIPTION: Cytotoxicity against human AsPC1 cells assessed as reduction in cell viability at 75 uM incubated for 72 hrs by MTT assay
Type: functional
ASSAY_CONDITIONS: ASPC1, 72 h
Reported inhibition at 75 µM values for a set of compounds

Please review the following examples before continuing.
The value of inhibition at 75 µM measured for the compound CCCCNC(=O)C(Sc1nc2cc(Cl)ccc2s1)c1ccccc1 (stereo not drawn) turned out to be ≤ 50%

The value of inhibition at 75 µM measured for the compound O=C(Nc1ccccc1)C(Sc1nc2cc(Cl)ccc2s1)c1ccccc1 (stereo not drawn) turned out to be ≤ 75%

More entries:
The value of inhibition at 75 µM measured for the compound O=C(NCCc1ccccc1)C(Sc1nc2cc(Cl)ccc2s1)c1ccccc1 (stereo not drawn) turned out to be ≤ 74%
